Where do the numbers come from? From paper PMC9873481.

- STUDY TARGET: hBest2 (Homo sapiens)
- Sequence (Q8NFU1 1-509): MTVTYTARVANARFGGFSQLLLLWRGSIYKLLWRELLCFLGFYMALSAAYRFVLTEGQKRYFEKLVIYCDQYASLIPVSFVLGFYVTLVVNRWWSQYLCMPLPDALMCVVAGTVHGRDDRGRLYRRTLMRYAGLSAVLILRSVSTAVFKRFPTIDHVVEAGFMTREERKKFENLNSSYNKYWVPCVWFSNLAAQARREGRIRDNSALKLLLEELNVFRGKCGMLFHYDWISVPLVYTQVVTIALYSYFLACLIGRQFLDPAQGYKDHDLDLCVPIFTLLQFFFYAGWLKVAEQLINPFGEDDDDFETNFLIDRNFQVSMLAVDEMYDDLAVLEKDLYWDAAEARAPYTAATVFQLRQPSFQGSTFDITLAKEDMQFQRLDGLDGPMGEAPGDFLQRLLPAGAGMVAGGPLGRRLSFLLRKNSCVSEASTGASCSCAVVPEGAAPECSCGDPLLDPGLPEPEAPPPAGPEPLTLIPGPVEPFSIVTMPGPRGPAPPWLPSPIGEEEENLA
- METHOD: whole-cell patch clamp, HEK293
PARAMETER MEASURED: EC50 (mM)
Number in mM, nothing else.

// output EC50; input N[C@@H](CCC(=O)O)C(=O)O [glutamate] ; system hBest2 (Homo sapiens)
46
